The reported numbers originate from patent US20210278408A1.

Test system: 407 cancer cell lines
testName: Cell viability of cancer cell lines (IC50), CellTiter-Glo Viability Assay, 96 h
Type: cell-based
conditionDetails: Homo sapiens, DOHH-2, 96 h, DOHH-2 cells, 96 h; read-out: Absolute IC50
quantityName: IC50 (nM)
Your answer is read as nM, so omit the unit and give the number.

Look at this compound and give its reported IC50. Cc1nn(-c2nc(-c3ccc(C(F)(F)F)cc3)c(SC(C)C)s2)c(C(=O)O)c1-c1cccc(F)c1 310

----------
Test system: HK-2
testName: Anti-proliferative activity, CellTiter-Glo, 72 hours: HK-2
Format: cell-based, human
conditionDetails: HK-2 (kidney epilithial), Cell-Titre-Glo
quantityName: IC50 (µM)
Your answer is read as µM, so omit the unit and give the number.

Look at this compound and give its reported IC50. O=C(O)C(Cc1ccccc1[N+](=O)[O-])=NNc1nc(-c2ccc(Cl)c(Cl)c2)cs1 (mixture of isomers) [Compound 4EGI-1, 4EGI-1, reference compound] 46
